Assay: Toxicity liver stage against HepG2, at 10uM
Format: cell-based
Parameters: test concentration 10 uM, cell line HepG2-A16-CD81EGFP
Details: human, HepG2-A16-CD81EGFP cells; read-out: INHIBITION
quantity kind: cytotoxicity at 10 µM (%)
Provide the reading as a plain figure in %.

Which measured cytotoxicity at 10 µM value corresponds to O=C(NCCc1ccc2c(c1)OCO2)C1CCCN(Cc2ccco2)C1 (stereo not given) ?
0.209

Which measured cytotoxicity at 10 µM value corresponds to `CCOC(=O)N1CCN(c2nc(N3CCCC3)c3ccccc3n2)CC1` ?
-5.31

Which measured cytotoxicity at 10 µM value corresponds to `Cc1nc(CN2CCc3ncnc(-c4ccc(F)cc4)c3CC2)cs1` ?
4.89

Which measured cytotoxicity at 10 µM value corresponds to Cc1cc(NC(=O)C(C)N2CCN(c3ccc(C#N)cc3F)CC2)no1 (stereo not given) ?
6.16

Which measured cytotoxicity at 10 µM value corresponds to `CN(CC1(O)CCCC1)C(=O)c1cccc(Nc2cnccn2)c1` ?
-4.27

----------
Test: Toxicity liver stage against HepG2, at 10uM
Assay type: cell-based
Parameters: test concentration 10 uM, cell line HepG2-A16-CD81EGFP
Details: human, HepG2-A16-CD81EGFP cells; read-out: INHIBITION
quantity kind: cytotoxicity at 10 µM (%)
Provide the reading as a plain figure in %.

Which measured cytotoxicity at 10 µM value corresponds to `COc1cccc(Cl)c1-c1cc(CN)ccc1F` ?
-5.3

Which measured cytotoxicity at 10 µM value corresponds to `COc1ncccc1CN1CC[C@]2(C[C@@H](OCc3ccccn3)CO2)C1` ?
4.96

Which measured cytotoxicity at 10 µM value corresponds to O=C(COCC1CC[C@H]2[C@H](CCN2c2ncccn2)O1)N1CCCC1 (stereo partly drawn) ?
1.27

Which measured cytotoxicity at 10 µM value corresponds to CCCN1CCC(CNC(=O)C2(c3cccc(C)c3)CC2)C1 (stereo not drawn) ?
-13.4

Which measured cytotoxicity at 10 µM value corresponds to `Cn1cnc2c(-c3ccccc3)nc(C3CCNCC3)cc21` ?
-109

Which measured cytotoxicity at 10 µM value corresponds to CN(C)CC1(O)CCN(C(=O)c2ccc(-n3cccn3)cc2Cl)C1 (stereo not drawn) ?
-0.662

Which measured cytotoxicity at 10 µM value corresponds to `NC(=O)c1ccc(NC(=O)c2ccncc2F)cn1` ?
6.48

Which measured cytotoxicity at 10 µM value corresponds to `Cc1ccc(=O)n(CC2(O)CCN(Cc3cccs3)CC2)n1` ?
-5.72

Which measured cytotoxicity at 10 µM value corresponds to `CNC(=O)C(C)(C)N1CCC[C@H]1C(=O)NCCN1CCCC1` ?
-2.3

Which measured cytotoxicity at 10 µM value corresponds to `Cn1cc(C(=O)NC2CCN(C(=O)NCCSC(F)(F)F)CC2)cn1` ?
2.36

Which measured cytotoxicity at 10 µM value corresponds to `CCc1nc(CN2CC[C@@](O)(CCOC)[C@H](C)C2)cs1` ?
10

Which measured cytotoxicity at 10 µM value corresponds to `CN(C)CCNC(=O)CNC(=O)N1CCc2c([nH]c3ccc(Cl)cc23)C1` ?
7.36

Which measured cytotoxicity at 10 µM value corresponds to `CC(=O)NCCC(=O)Nc1sccc1C(=O)C(C)(C)C` ?
-46.3

Which measured cytotoxicity at 10 µM value corresponds to `OC1(Cn2ccc3ccncc32)CCN(Cc2ccccn2)CC1` ?
2.42

Which measured cytotoxicity at 10 µM value corresponds to CC(C)C(CCO)NC(=O)Nc1ccc(-c2csnn2)cc1 (stereo not drawn) ?
-10

Which measured cytotoxicity at 10 µM value corresponds to `O=C(c1cc(C2CC2)on1)N1C[C@H]2CC[C@](O)(c3ccccc3F)[C@H]2C1` ?
5.37

Which measured cytotoxicity at 10 µM value corresponds to COC(=O)C(CCSC)NC(=O)Cc1c(C)nn(-c2ccccc2)c1C (stereo not drawn) ?
-4.31

Which measured cytotoxicity at 10 µM value corresponds to Cc1ccccc1N1CCCN(C(=O)CC2CN(C(C)C)CCO2)CC1 (stereo not drawn) ?
-3.11

----------
Assay: Toxicity liver stage against HepG2, at 10uM
Assay type: cell-based
Set-up: test concentration 10 uM, cell line HepG2-A16-CD81EGFP
Details: human, HepG2-A16-CD81EGFP cells; read-out: INHIBITION
quantity kind: cytotoxicity at 10 µM (%)
Provide the reading as a plain figure in %.

Which measured cytotoxicity at 10 µM value corresponds to Cc1cnn(C2CCCN(C(=O)c3ccc(N4CCCC4)nc3)C2)c1 (stereo not given) ?
-4.77

Which measured cytotoxicity at 10 µM value corresponds to O=C(CCc1ccccc1)N1CCCCC1C1OCCO1 (stereo not given) ?
-45.1

Which measured cytotoxicity at 10 µM value corresponds to `O=C(NCCOc1ccc(Cl)cn1)Nc1ccccn1` ?
9.05

Which measured cytotoxicity at 10 µM value corresponds to CCN1CCN(C(=O)C(C)N2CCN(Cc3nccn3C)CC2)CC1 (stereo not given) ?
-6.34

Which measured cytotoxicity at 10 µM value corresponds to Cc1ccccc1-n1ncc(C(C)N)c1C (stereo not given) ?
-8.23

Which measured cytotoxicity at 10 µM value corresponds to COc1nsc2nc(C3CCCN3c3ncccn3)ccc12 (stereo not given) ?
10.5

Which measured cytotoxicity at 10 µM value corresponds to Cc1ccc2oc(=O)n(CCC(=O)N3CCC4(CN(C)C(=O)O4)C3)c2c1 (stereo not given) ?
1.66

Which measured cytotoxicity at 10 µM value corresponds to `c1ccc(Sc2ccc3c(c2)OCO3)c(CNC2=NCCN2)c1` ?
17.6

Which measured cytotoxicity at 10 µM value corresponds to `COc1c(C)cnc(CSc2nnc(N)s2)c1C` ?
10.1

Which measured cytotoxicity at 10 µM value corresponds to `Cc1ncsc1CN1C[C@@H]2CN(S(C)(=O)=O)CCO[C@@H]2C1` ?
-105

Which measured cytotoxicity at 10 µM value corresponds to CC(NC(=O)C(C)(C)C#N)c1ccc(OCC2CC2)c(F)c1 (stereo not given) ?
2.31

Which measured cytotoxicity at 10 µM value corresponds to `O=C1COC2(CCN(C(=O)C3CC=CC3)CC2)CN1Cc1cccnc1` ?
3.27

Which measured cytotoxicity at 10 µM value corresponds to `Cc1cc(N(C)CCCn2cccn2)nc(N)n1` ?
0.423

Which measured cytotoxicity at 10 µM value corresponds to `CCOC(=O)[C@@H]1[C@@H](c2ccccc2)CN2CCN(C(C)=O)C[C@H]12` ?
9.28

Which measured cytotoxicity at 10 µM value corresponds to `CC(C)[C@@H]1CN(CC(=O)NCc2ccco2)C[C@H]1NS(=O)(=O)N(C)C` ?
6.11

----------
Test: Toxicity liver stage against HepG2, at 10uM
Format: cell-based
Set-up: test concentration 10 uM, cell line HepG2-A16-CD81EGFP
Details: human, HepG2-A16-CD81EGFP cells; read-out: INHIBITION
quantity kind: cytotoxicity at 10 µM (%)
Provide the reading as a plain figure in %.

Which measured cytotoxicity at 10 µM value corresponds to CCn1cncc1C1CC(=O)Nc2c1c(C)nn2-c1ccc(C)cc1 (stereo not given) ?
-8.23

Which measured cytotoxicity at 10 µM value corresponds to `CSc1ncccc1C(=O)NCc1ccc(CS(=O)(=O)NC(C)C)cc1` ?
4.4

Which measured cytotoxicity at 10 µM value corresponds to CCOC1COC2(CCN(Cc3cccc(C#N)c3)CC2)C1 (stereo not given) ?
-2.66

Which measured cytotoxicity at 10 µM value corresponds to `Cc1cc(NC(=O)Cc2ccccc2O)cnc1N1CCCCC1` ?
-0.134

Which measured cytotoxicity at 10 µM value corresponds to CCC1c2ccc(C)n2CCN1C(=O)Cn1cnc2sc(C)cc2c1=O (stereo not given) ?
6.09

Which measured cytotoxicity at 10 µM value corresponds to `O=C(c1ccccc1F)N1CCCn2c(CN3CCCCC3)nnc2C1` ?
-71.5

Which measured cytotoxicity at 10 µM value corresponds to `Cc1cnn(C2CN(Cc3noc(C4CC4)n3)C2)c1` ?
4.34

Which measured cytotoxicity at 10 µM value corresponds to `Cc1cc(C(=O)N2CCC(n3cc(CO)nn3)CC2)ccc1F` ?
-4.73

Which measured cytotoxicity at 10 µM value corresponds to CCc1[nH]ncc1C(=O)N1CCOC(c2nc(C)n[nH]2)C1 (stereo not given) ?
-8.69

Which measured cytotoxicity at 10 µM value corresponds to `CN(C)c1ncc(NS(=O)(=O)c2ccc(OC(F)(F)F)cc2)cn1` ?
11.9

Which measured cytotoxicity at 10 µM value corresponds to O=C1CCC2(CCCN(C(=O)c3cccnc3)CC2)N1 (stereo not given) ?
6.56

Which measured cytotoxicity at 10 µM value corresponds to `Cc1nn(Cc2ccc(C(=O)NCCCN3CCCC3=O)o2)c(C)c1Br` ?
9.35

Which measured cytotoxicity at 10 µM value corresponds to `COCCn1cc(NCc2cccc3cn[nH]c23)cn1` ?
-3.31

Which measured cytotoxicity at 10 µM value corresponds to `Cc1nn(Cn2ccc(C(=O)N3CCOCC3)n2)c(C)c1Cl` ?
-0.112

Which measured cytotoxicity at 10 µM value corresponds to `Cc1cc(-c2cnc(NC3CCCC3)nc2-c2ccc(C)o2)on1` ?
-22.4

Which measured cytotoxicity at 10 µM value corresponds to CC(=O)N(C)c1nc(CN2CCCC2Cn2nc(C)cc2C)cs1 (stereo not given) ?
-10.3

Which measured cytotoxicity at 10 µM value corresponds to CCCNc1ncc(CN2CCOC(Cc3cccc(F)c3)C2)cn1 (stereo not given) ?
-8.65

Which measured cytotoxicity at 10 µM value corresponds to `O=C(c1cnns1)N1CCN(c2ccc(F)cc2Cl)CC1` ?
-145

Which measured cytotoxicity at 10 µM value corresponds to `O=C(c1ccccc1)N1C[C@@H]2CCCO[C@@H]2[C@H](N2CCOCC2)C1` ?
-8.81

Which measured cytotoxicity at 10 µM value corresponds to CCC1c2cccn2CCN1C(=O)c1ccc2nonc2c1 (stereo not given) ?
-13.2

Which measured cytotoxicity at 10 µM value corresponds to CCOC1COC2(CCN(Cc3ccc(F)cc3)CC2)C1 (stereo not given) ?
-0.508

Which measured cytotoxicity at 10 µM value corresponds to `CCN1CC2(CCC1=O)CCN(Cc1nncn1C(C)C)CC2` ?
8.39

Which measured cytotoxicity at 10 µM value corresponds to `CCn1cc(CN2CCCN(C(=O)Cc3cccs3)CC2)cn1` ?
-2.76

Which measured cytotoxicity at 10 µM value corresponds to Cn1cc(N2CCCC(Oc3ccc(F)cc3Cl)C2=O)cn1 (stereo not given) ?
-3.3

Which measured cytotoxicity at 10 µM value corresponds to `COCCCOc1ccc(C(=O)N(C)Cc2cccc(O)c2)cn1` ?
-9.63

Which measured cytotoxicity at 10 µM value corresponds to `O=C(C1CC=CC1)N1CCC2(CC1)OCCO2` ?
6.9

Which measured cytotoxicity at 10 µM value corresponds to COc1ccccc1CNC(C)c1ccc(-n2ccnc2)cc1 (stereo not given) ?
5.25

Which measured cytotoxicity at 10 µM value corresponds to `OCc1csc(N2CCCN(Cc3ccc(F)cc3)CC2)n1` ?
-2.58

Which measured cytotoxicity at 10 µM value corresponds to `COC(=O)c1ccc(OCC(=O)N(C)Cc2ccsc2)c(OC)c1` ?
5.98

Which measured cytotoxicity at 10 µM value corresponds to `CCOCc1cncc2c1CCN(C(=O)c1cccc(C#N)c1)C2` ?
3.55

Which measured cytotoxicity at 10 µM value corresponds to O=C(c1ccc[nH]1)N1CCOCC2(CCN(C3CCOCC3)C2)C1 (stereo not given) ?
10.7

Which measured cytotoxicity at 10 µM value corresponds to `COc1ccccc1OCCNCc1c(C(C)C)nn(C)c1N(C)C` ?
-12.8

Which measured cytotoxicity at 10 µM value corresponds to `Cc1nn(C)c(C)c1-c1ccnc(N2CCCN(CC(C)C)CC2)n1` ?
5.78

Which measured cytotoxicity at 10 µM value corresponds to `C[C@@H]1CN(Cc2cn(C)nc2-c2ccccc2F)C[C@H](C)O1` ?
-1.43

Which measured cytotoxicity at 10 µM value corresponds to `O=C(O)CSc1nc(-c2ccc3c(c2)CCC3)n[nH]1` ?
1.88
